Recorded values, source patent US9328083B2.

Tested on: Jurkat (acute lymphoblastic leukemia, ALL)
Experiment: MTT growth inhibition of leukemia cells, 72 h
Assay type: cell-based, human
Conditions: Homo sapiens, 72 h, read-out: IC50
Labelling: IC50 reported below 2 µg/mL becomes condition met; at or above becomes condition not met.

- compound: "Cc1c(CN(C)CCOC(=O)CCC(=O)O)oc2c1C(=O)C(=O)c1c-2ccc2c(C)cccc12 [BS-TA-73]"
  class: "condition met"
- compound: "Cc1c(CNCCC(C)(C)C)oc2c1C(=O)C(=O)c1c-2ccc2c(C)cccc12 [BS-TA-B14]"
  class: "condition not met"
- compound: "CCN(C)Cc1oc2c(c1C)C(=O)C(=O)c1c-2ccc2c(C)cccc12 [BS-TA-B03]"
  class: "condition not met"
- compound: "CC[N+](C)(Cc1ccc(F)c(Cl)c1)Cc1oc2c(c1C)C(=O)C(=O)c1c-2ccc2c(C)cccc12 (centres unmarked) [BS-TA-50]"
  class: "condition not met"
- compound: "CC(=O)OCCN(C)Cc1oc2c(c1C)C(=O)C(=O)c1c-2ccc2c(C)cccc12 [BS-TA-61]"
  class: "condition met"

# check: IC50 < 2 µg/mL for Cc1c(CN(C)Cc2ccccc2)oc2c1C(=O)C(=O)c1c-2ccc2c(C)cccc12 [BS-TA-B01]
condition met

# check: IC50 < 2 µg/mL for Cc1c(CN(C)CCOC(=O)C(C)(C)C)oc2c1C(=O)C(=O)c1c-2ccc2c(C)cccc12 [BS-TA-62]
condition met

# check: IC50 < 2 µg/mL for CCCCNCc1oc2c(c1C)C(=O)C(=O)c1c-2ccc2c(C)cccc12 [BS-TA-B10]
condition not met

# check: IC50 < 2 µg/mL for Cc1c(CN(C)CCOC(=O)OC(C)C)oc2c1C(=O)C(=O)c1c-2ccc2c(C)cccc12 [BS-TA-63]
condition not met

# check: IC50 < 2 µg/mL for Cc1c(CNCC2CC2)oc2c1C(=O)C(=O)c1c-2ccc2c(C)cccc12 [BS-TA-B07]
condition not met

# check: IC50 < 2 µg/mL for Cc1c(CN2CCCN(C)CC2)oc2c1C(=O)C(=O)c1c-2ccc2c(C)cccc12 [BS-TA-B12]
condition met

# check: IC50 < 2 µg/mL for Cc1c(CN(C)CCOC(=O)[C@@H](N)C(C)C)oc2c1C(=O)C(=O)c1c-2ccc2c(C)cccc12 [BS-TA-71]
condition met

# check: IC50 < 2 µg/mL for C#CCNCc1oc2c(c1C)C(=O)C(=O)c1c-2ccc2c(C)cccc12 [BS-TA-B21]
condition not met

# check: IC50 < 2 µg/mL for Cc1c(CN(C)CCOC(=O)C2CCNCC2)oc2c1C(=O)C(=O)c1c-2ccc2c(C)cccc12 [BS-TA-64]
condition met

# check: IC50 < 2 µg/mL for Cc1c(C[N+](C)(CCO)Cc2ccc(F)c(Cl)c2)oc2c1C(=O)C(=O)c1c-2ccc2c(C)cccc12 (centres unmarked) [BS-TA-60]
condition met

# check: IC50 < 2 µg/mL for Cc1c(CNCCO)oc2c1C(=O)C(=O)c1c-2ccc2c(C)cccc12 [BS-TA-65]
condition met

# check: IC50 < 2 µg/mL for Cc1c(CNCC2CCCCC2)oc2c1C(=O)C(=O)c1c-2ccc2c(C)cccc12 [BS-TA-B06]
condition not met
